# test system: USP25 (USP25-His6, Boston Biochem E-546) (Homo sapiens, UniProt Q9UHP3)
# Construct: His6; purchased Boston Biochem E-546
# Sequence (Q9UHP3 1-1055): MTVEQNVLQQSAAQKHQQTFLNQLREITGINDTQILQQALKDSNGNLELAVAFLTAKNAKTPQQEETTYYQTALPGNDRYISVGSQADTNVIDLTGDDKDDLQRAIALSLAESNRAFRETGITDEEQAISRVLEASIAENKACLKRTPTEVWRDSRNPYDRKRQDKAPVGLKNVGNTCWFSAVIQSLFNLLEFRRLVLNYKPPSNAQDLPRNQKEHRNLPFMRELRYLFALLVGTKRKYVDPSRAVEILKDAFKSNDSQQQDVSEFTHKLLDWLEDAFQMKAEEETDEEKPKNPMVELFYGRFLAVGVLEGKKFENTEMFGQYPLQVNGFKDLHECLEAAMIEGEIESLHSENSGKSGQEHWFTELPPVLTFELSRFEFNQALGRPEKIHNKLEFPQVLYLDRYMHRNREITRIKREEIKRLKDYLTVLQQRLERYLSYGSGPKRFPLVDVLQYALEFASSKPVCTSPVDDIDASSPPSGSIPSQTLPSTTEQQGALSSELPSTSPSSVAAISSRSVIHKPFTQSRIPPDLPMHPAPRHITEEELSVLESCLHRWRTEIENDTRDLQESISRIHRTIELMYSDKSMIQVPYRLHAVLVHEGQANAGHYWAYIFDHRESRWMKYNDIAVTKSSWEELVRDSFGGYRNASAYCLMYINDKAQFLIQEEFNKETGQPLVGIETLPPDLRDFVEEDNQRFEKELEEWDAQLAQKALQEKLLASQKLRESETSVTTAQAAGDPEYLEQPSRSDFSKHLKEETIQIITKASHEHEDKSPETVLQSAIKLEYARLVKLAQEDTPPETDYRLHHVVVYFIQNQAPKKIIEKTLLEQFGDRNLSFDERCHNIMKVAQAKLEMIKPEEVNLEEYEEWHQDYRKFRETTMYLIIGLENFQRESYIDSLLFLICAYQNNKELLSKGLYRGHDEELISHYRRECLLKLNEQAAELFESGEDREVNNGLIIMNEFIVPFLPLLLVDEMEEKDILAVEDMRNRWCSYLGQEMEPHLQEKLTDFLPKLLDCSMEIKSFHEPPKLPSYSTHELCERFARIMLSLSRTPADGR
# assay procedure: Ubiquitin-Rhodamine 110 Assay for USP25 Activity, Example A-2
# Type: biochemical
# experimental conditions: Ubiquitin-Rhodamine 110 assay, Example A-2; read-out: USP25 A-2 IC50 range
In this section, each of the compounds is paired with its reported IC50.

Some solved entries appear below for comparison.
compound	IC50
Cc1ccc2c(N)c(C(=O)N[C@H]3COc4cc(N5CCN[C@@H](C(F)(F)F)C5)ccc4C3)sc2n1	200 to 2000 nM
O=C(N[C@H]1COc2cc(N3CCNCC3)ccc2C1)c1ccc(NCc2ccc3c(c2)OCCO3)nc1	200 to 2000 nM

Note: attention shifts to another entry.
Task: Requested field: IC50. Item: Cc1cc(C)c2c(N)c(C(=O)N[C@H]3COc4cc(N5CC[C@H]6CNC[C@H]65)cc(F)c4C3)sc2n1 (single isomer, unassigned)
Result: 50 to 200 nM

----------
# test system: USP25 (USP25-His6, Boston Biochem E-546) (Homo sapiens)
# Construct: His6; purchased Boston Biochem E-546
# assay procedure: Ubiquitin-Rhodamine 110 Assay for USP25 Activity, Example A-2
# Type: biochemical
# experimental conditions: Ubiquitin-Rhodamine 110 assay, format Example A-2; read-out: USP25 A-2 IC50 range
recorded metric: IC50

Some solved entries appear below for comparison.
compound	test system	IC50
Cc1ccc2c(N)c(C(=O)N[C@@H]3CCc4cc(N5CC6CCC(C5)N6)c(C#N)cc4C3)sc2n1 (single isomer, unassigned)	USP25 (USP25-His6, Boston Biochem E-546) (Homo sapiens)	> 2000 nM
Cc1ccc2c(N)c(C(=O)N[C@@H]3CCc4c(F)c(N5CC6CNCC(C5)O6)cc(F)c4C3)sc2n1 (single isomer, unassigned)	USP25 (USP25-His6, Boston Biochem E-546) (Homo sapiens)	1 to 50 nM
Cc1ccc2c(N)c(C(=O)N[C@H]3CCc4c(ccc(N5CC6CCC(C5)N6)c4F)C3)sc2n1 (single isomer, unassigned)	USP25 (USP25-His6, Boston Biochem E-546) (Homo sapiens)	200 to 2000 nM
Cc1ccc2c(N)c(C(=O)N[C@H]3CCc4c(ccc(N5CC6CCC(C5)N6)c4C#N)C3)sc2n1 (single isomer, unassigned)	USP25 (USP25-His6, Boston Biochem E-546) (Homo sapiens)	> 2000 nM
Cc1ccc2c(N)c(C(=O)N[C@H]3COc4cc(N5CC6CCC(C5)N6)nc(F)c4C3)sc2n1	USP25 (USP25-His6, Boston Biochem E-546) (Homo sapiens)	50 to 200 nM

Task: Requested field: IC50. Item: Cc1ccc2c(N)c(C(=O)N[C@@H]3CCc4cc(N5CCNCC5)c(F)cc4C3)sc2n1 (single isomer, unassigned)
Result: 200 to 2000 nM

----------
# test system: USP25 (USP25-His6, Boston Biochem E-546) (Homo sapiens, UniProt Q9UHP3)
# Construct: His6; purchased Boston Biochem E-546
# assay procedure: Ubiquitin-Rhodamine 110 Assay for USP25 Activity, Example A-2
# Assay type: biochemical
# experimental conditions: Ubiquitin-Rhodamine 110 assay, Example A-2; read-out: USP25 A-2 IC50 range
pIC50: −log10 of the molar value.
In this section, each of the molecules is paired with its reported pIC50.

molecule	pIC50
Cc1ccc2c(N)c(C(=O)N[C@H]3COc4cc([C@@H]5CCNC[C@H]5O)ccc4C3)sc2n1	6.70 to 7.30

Task: // map CO[C@H]1CN(c2ccc3c(c2)OC[C@H](NC(=O)c2sc4nc(C)cnc4c2N)C3)C[C@@H]1N to recorded pIC50 (system: USP25 (USP25-His6, Boston Biochem E-546) (Homo sapiens, UniProt Q9UHP3))
Result: 5.70 to 6.70

Task: // map COC[C@@H]1CN(c2ccc3c(n2)CC[C@H](NC(=O)c2sc4nc(C)ccc4c2N)C3)C[C@@H]1N (single isomer, unassigned) to recorded pIC50 (system: USP25 (USP25-His6, Boston Biochem E-546) (Homo sapiens, UniProt Q9UHP3))
Result: < 5.70

Task: // map N#Cc1c(N2CC3CCC(C2)N3)cc2c(c1F)C[C@@H](NC(=O)c1cnc3c(c1)[C@H]1C[C@H]1CN3)CO2 to recorded pIC50 (system: USP25 (USP25-His6, Boston Biochem E-546) (Homo sapiens, UniProt Q9UHP3))
Result: 5.70 to 6.70

----------
# test system: USP25 (USP25-His6, Boston Biochem E-546) (Homo sapiens, UniProt Q9UHP3)
# Construct: His6; purchased Boston Biochem E-546
# assay procedure: Ubiquitin-Rhodamine 110 Assay for USP25 Activity, Example A-2
# Format: biochemical
# experimental conditions: Ubiquitin-Rhodamine 110 assay, Example A-2; read-out: USP25 A-2 IC50 range
recorded metric: IC50

Some solved entries appear below for comparison.
compound	IC50
Cc1ccc2c(N)c(C(=O)N[C@H]3COc4cc(N5CC[C@@H]6CNC[C@@H]65)cc(F)c4C3)sc2n1 [Example 221]	200 to 2000 nM
Cc1cnc2c(N)c(C(=O)N[C@H]3CCc4nc(N5CCNCC5)ccc4C3)sc2n1 [Example 23-6]	200 to 2000 nM
CO[C@H]1CN(c2cc3c(cc2C#N)C[C@@H](NC(=O)c2sc4nc(C)cnc4c2N)CO3)C[C@@H]1N [Example 176]	50 to 200 nM
Cc1ccc2c(N)c(C(=O)N[C@H]3COc4cc(N5CC6CNC[C@](C)(C5)O6)cc(F)c4C3)sc2n1 [Example 413]	200 to 2000 nM

Task: Requested field: IC50. Item: Cc1ccc2c(N)c(C(=O)N[C@H]3COc4c(F)c(N5CCNCC5)c(F)c(F)c4C3)sc2n1 [Example 35]
Result: 50 to 200 nM

Task: Requested field: IC50. Item: Cc1ccc2c(N)c(C(=O)N[C@H]3COc4cc(C5(C#N)CCS(=O)(=O)CC5)ccc4C3)sc2n1 [Example 34]
Result: 1 to 50 nM

Task: Requested field: IC50. Item: CO[C@H]1CCN(c2ccc3c(n2)CC[C@H](NC(=O)c2sc4nc(C)ccc4c2N)C3)C[C@@H]1N (single isomer, unassigned) [Example 315]
Result: 200 to 2000 nM

Task: Requested field: IC50. Item: Cc1ccc2c(N)c(C(=O)N[C@H]3COc4cc(N5CC6(C5)OCC[C@@H]6N)ccc4C3)sc2n1 [Example 338]
Result: 200 to 2000 nM

Task: Requested field: IC50. Item: Cc1ccc2c(N)c(C(=O)N[C@@H]3CCc4cc(N5CCN[C@@H](CO)C5)ccc4C3)sc2n1 (single isomer, unassigned) [Example 7-11]
Result: 200 to 2000 nM

Task: Requested field: IC50. Item: Cc1ccc2c(N)c(C(=O)N[C@H]3COc4cc(N5CCS(=O)(=O)CC5)ccc4C3)sc2n1 [Example 5-2]
Result: 50 to 200 nM
